- measured-target: Retinoic acid receptor beta (Homo sapiens)
- Sequence (P10826 whole entry): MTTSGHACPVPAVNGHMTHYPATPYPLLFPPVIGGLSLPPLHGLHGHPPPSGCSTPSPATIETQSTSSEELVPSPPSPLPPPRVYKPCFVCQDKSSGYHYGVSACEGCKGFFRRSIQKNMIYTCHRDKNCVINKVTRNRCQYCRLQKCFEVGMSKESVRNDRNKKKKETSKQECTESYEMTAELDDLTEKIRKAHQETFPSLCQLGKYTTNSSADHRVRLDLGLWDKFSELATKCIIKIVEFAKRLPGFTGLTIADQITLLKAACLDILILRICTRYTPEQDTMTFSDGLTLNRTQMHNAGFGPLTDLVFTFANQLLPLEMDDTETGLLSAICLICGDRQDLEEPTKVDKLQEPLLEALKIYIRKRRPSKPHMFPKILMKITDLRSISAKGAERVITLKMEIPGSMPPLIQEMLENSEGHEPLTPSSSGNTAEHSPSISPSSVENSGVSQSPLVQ
- experiment-notes: Binding affinity against retinoic Acid beta receptors co-transfected into CV-1 cells
pEC50: −log10 of the molar value.
recorded-metric: pEC50

[
  {
    "chemical-smiles": "CCc1cc2c(cc1/C(C)=C/c1ccc(C(=O)O)cc1)C(C)(C)CCC2(C)C",
    "pEC50": 6.51
  },
  {
    "chemical-smiles": "C/C(=C\\c1ccc(C(=O)O)cc1)c1cc2c(cc1C)C(C)(C)CCC2(C)C",
    "pEC50": 6.64
  }
]

* * *

Sequence of the target: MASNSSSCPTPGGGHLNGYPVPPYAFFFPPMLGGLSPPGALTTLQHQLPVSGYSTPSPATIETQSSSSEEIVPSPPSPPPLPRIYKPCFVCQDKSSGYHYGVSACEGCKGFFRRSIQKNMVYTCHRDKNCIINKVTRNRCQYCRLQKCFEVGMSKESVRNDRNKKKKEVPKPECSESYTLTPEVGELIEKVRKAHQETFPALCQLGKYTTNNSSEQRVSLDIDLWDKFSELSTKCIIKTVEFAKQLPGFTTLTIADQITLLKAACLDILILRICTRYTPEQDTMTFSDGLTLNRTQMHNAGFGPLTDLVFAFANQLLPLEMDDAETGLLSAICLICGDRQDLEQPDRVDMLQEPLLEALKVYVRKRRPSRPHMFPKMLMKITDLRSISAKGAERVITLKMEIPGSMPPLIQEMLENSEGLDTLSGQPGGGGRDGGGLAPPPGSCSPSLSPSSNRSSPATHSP
recorded-metric: pIC50
# pIC50: negative log10 of molar concentration; output just the value

# input If you can, please state the reported pIC50 value of "C/C(=C\c1ccc(C(=O)O)cc1)c1cc2c(cc1C)C(C)(C)CCC2(C)C" .
# output 6.20

* * *

- measured-target: Retinoic acid receptor gamma (Homo sapiens, UniProt P13631)
- Sequence (P13631 whole entry): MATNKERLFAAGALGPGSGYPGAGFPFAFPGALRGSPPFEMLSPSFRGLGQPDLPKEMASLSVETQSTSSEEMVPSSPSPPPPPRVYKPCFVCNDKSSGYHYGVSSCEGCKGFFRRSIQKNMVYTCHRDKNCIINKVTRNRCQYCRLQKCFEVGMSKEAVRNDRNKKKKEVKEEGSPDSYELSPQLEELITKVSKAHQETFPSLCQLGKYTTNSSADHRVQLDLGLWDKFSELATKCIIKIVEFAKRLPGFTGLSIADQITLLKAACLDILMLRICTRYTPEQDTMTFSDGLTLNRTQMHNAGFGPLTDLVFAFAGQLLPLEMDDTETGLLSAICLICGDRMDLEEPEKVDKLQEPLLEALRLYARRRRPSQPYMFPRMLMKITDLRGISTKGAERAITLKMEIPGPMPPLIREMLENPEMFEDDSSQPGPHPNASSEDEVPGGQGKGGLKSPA
recorded-metric: pIC50
# pIC50: negative log10 of molar concentration; output just the value

# input If you can, please state the reported pIC50 value of "CCc1cc2c(cc1/C(C)=C/c1ccc(C(=O)O)cc1)C(C)(C)CCC2(C)C" .
# output 6.60

* * *

- measured-target: Retinoic acid receptor RXR-alpha (Homo sapiens, UniProt P19793)
- Sequence (P19793 whole entry): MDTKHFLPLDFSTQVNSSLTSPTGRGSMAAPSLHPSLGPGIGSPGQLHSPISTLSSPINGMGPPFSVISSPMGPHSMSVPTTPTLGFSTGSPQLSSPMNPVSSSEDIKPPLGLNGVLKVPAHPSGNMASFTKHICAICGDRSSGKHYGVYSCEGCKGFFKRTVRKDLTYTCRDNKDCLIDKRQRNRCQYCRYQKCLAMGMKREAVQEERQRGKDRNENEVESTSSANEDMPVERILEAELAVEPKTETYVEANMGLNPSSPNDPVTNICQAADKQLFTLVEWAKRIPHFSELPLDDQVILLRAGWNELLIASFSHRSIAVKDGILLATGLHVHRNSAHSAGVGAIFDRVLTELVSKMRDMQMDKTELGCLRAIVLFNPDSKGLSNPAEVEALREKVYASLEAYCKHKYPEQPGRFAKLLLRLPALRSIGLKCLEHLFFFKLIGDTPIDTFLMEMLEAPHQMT
recorded-metric: IC50 (nM)
The figure you give is taken to be in nM; do not add the unit.

# input Short answer please: IC50, Retinoic acid receptor RXR-alpha (Homo sapiens, UniProt P19793), entry "C/C(=C\c1ccc(C(=O)O)cc1)c1cc2c(cc1C)C(C)(C)CCC2(C)C"
# output 32

* * *

- measured-target: Retinoic acid receptor RXR-alpha (Homo sapiens)
- experiment-notes: Binding affinity against retinoic Acid X alpha receptors co-transfected into CV-1 cells
recorded-metric: EC50 (µM)

(a) C/C(=C\c1ccc(C(=O)O)cc1)c1cc2c(cc1C(C)C)C(C)(C)CCC2(C)C
(b) CCc1cc2c(cc1/C(C)=C/c1ccc(C(=O)O)cc1)C(C)(C)CCC2(C)C
(c) C/C(=C\c1ccc(C(=O)O)cc1)c1cc2c(cc1C)C(C)(C)CCC2(C)C
# input Using the recorded EC50, list the entries above from smallest to largest. // format: requested-order list of labels
# output a, c, b
(a: 0.3 µM, c: 1.2 µM, b: 2.9 µM)

* * *

- measured-target: UniProt:P48443
- Sequence (P48443 whole entry): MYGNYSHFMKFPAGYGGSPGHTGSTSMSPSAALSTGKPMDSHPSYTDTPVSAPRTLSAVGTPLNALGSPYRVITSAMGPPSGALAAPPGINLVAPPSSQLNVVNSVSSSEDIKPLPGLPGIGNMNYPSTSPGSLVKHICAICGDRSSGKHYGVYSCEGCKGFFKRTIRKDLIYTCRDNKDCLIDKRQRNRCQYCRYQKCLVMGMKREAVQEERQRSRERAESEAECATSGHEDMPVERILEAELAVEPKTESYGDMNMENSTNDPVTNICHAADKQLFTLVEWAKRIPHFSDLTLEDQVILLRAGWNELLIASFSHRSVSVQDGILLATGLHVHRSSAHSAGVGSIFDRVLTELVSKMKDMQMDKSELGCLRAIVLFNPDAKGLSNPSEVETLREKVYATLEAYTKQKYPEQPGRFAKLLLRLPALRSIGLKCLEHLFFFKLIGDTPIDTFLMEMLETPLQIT
- experiment-notes: Binding affinity against retinoic Acid X gamma receptors co-transfected into CV-1 cells
- Format: cell-based
recorded-metric: EC50 (µM)

[
  {
    "chemical-smiles": "C/C(=C\\c1ccc(C(=O)O)cc1)c1cc2c(cc1C(C)C)C(C)(C)CCC2(C)C",
    "EC50, µM": 2.7
  }
]

(P) CCc1cc2c(cc1/C(C)=C/c1ccc(C(=O)O)cc1)C(C)(C)CCC2(C)C
(Q) C/C(=C\c1ccc(C(=O)O)cc1)c1cc2c(cc1C)C(C)(C)CCC2(C)C
# input Pick the one with the larger EC50: P vs Q Give the chosen item's label as your response.
# output P
(P: 2.6 µM, Q: 1.5 µM)

* * *

pIC50: −log10 of the molar value.
Notes on pIC50 obtained with Retinoic acid receptor beta (Homo sapiens, UniProt P10826).
recorded-metric: pIC50

(I) C/C(=C\c1ccc(C(=O)O)cc1)c1cc2c(cc1C)C(C)(C)CCC2(C)C
(II) CCc1cc2c(cc1/C(C)=C/c1ccc(C(=O)O)cc1)C(C)(C)CCC2(C)C
# input Pick the one with the larger pIC50: I vs II Give the chosen item's label as your response.
# output II
(II: 7.12, I: 5.93)

* * *

- measured-target: Retinoic acid receptor RXR-beta (Homo sapiens)
- Sequence (P28702 whole entry): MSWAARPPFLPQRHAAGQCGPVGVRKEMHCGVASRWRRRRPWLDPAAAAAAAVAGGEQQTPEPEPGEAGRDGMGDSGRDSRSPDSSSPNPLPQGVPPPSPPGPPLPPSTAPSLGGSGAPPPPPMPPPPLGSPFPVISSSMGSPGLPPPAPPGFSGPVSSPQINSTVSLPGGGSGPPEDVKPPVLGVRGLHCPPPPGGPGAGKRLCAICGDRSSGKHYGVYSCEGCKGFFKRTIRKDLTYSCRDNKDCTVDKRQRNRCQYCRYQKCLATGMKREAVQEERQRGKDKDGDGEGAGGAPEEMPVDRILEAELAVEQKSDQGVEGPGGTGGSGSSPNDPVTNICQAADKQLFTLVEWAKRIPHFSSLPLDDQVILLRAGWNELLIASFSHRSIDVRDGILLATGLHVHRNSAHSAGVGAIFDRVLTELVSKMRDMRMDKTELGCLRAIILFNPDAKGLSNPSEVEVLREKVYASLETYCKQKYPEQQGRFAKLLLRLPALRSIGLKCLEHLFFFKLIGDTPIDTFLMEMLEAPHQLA
- experiment-notes: Binding affinity against retinoic Acid X beta receptors co-transfected into CV-1 cells
recorded-metric: EC50 (µM)

(P) C/C(=C\c1ccc(C(=O)O)cc1)c1cc2c(cc1C)C(C)(C)CCC2(C)C
(Q) CCc1cc2c(cc1/C(C)=C/c1ccc(C(=O)O)cc1)C(C)(C)CCC2(C)C
# input Which record shows the lower EC50: the first, P , or the second, Q ? Give the chosen item's label as your response.
# output P
